system: Staphylococcus aureus; assay: Antibacterial activity against erythromycin-resistant Staphylococcus aureus NRS-70; format: functional
parameter: MIC

Use these answered entries as a reference point.
{"compound": "C=CCON=C(c1ccc(Cl)cc1Cl)c1cc2c(cc1C(C)C)CC[C@H]1[C@](C)(C(=O)O)CCC[C@]21C", "MIC": "1.56 to 3.13 µg/mL"}
{"compound": "CN(C)[C@@H]1C(O)=C(C(N)=O)C(=O)[C@@]2(O)C(O)=C3C(=O)c4c(O)cccc4[C@@](C)(O)[C@H]3C[C@@H]12 [TETRACYCLINE]", "MIC": "< 0.2 µg/mL"}
{"compound": "CC(C)c1ccc2c(c1)CC[C@H]1[C@](C)(C(=O)O)CCC[C@]21C [DEHYDROABIETIC ACID]", "MIC": "12.5 to 25 µg/mL"}
{"compound": "CC(C)c1cc2c(cc1C(=NO)c1ccccc1C(F)(F)F)[C@@]1(C)CCC[C@@](C)(C(=O)O)[C@@H]1CC2", "MIC": "1.56 to 3.13 µg/mL"}
{"compound": "C=CCON=C(c1ccccc1)c1cc2c(cc1C(C)C)CC[C@H]1[C@](C)(C(=O)O)CCC[C@]21C", "MIC": "1.25 to 1.56 µg/mL"}

In: Could you please provide reported MIC for C=CCON=C(c1cc2c(cc1C(C)C)CC[C@H]1[C@](C)(C(=O)O)CCC[C@]21C)c1ccccc1C(F)(F)F ? Thanks!
Out: 1.56 to 3.13 µg/mL

In: Could you please provide reported MIC for C#CCON=C(c1cccc(C(F)(F)F)c1)c1cc2c(cc1C(C)C)CC[C@H]1[C@](C)(C(=O)O)CCC[C@]21C ? Thanks!
Out: > 25 µg/mL

In: Could you please provide reported MIC for C#CCON=C(c1cc2c(cc1C(C)C)CC[C@H]1[C@](C)(C(=O)O)CCC[C@]21C)c1ccccc1C(F)(F)F ? Thanks!
Out: > 25 µg/mL

In: Could you please provide reported MIC for CC(C)c1cc2c(cc1C(=NO)c1ccc(Cl)cc1Cl)[C@@]1(C)CCC[C@@](C)(C(=O)O)[C@@H]1CC2 ? Thanks!
Out: 1.56 to 3.13 µg/mL

In: Could you please provide reported MIC for C#CCON=C(c1ccc(Cl)cc1Cl)c1cc2c(cc1C(C)C)CC[C@H]1[C@](C)(C(=O)O)CCC[C@]21C ? Thanks!
Out: 1.56 to 3.13 µg/mL

In: Could you please provide reported MIC for CN[C@H](CC(C)C)C(=O)N[C@H]1C(=O)N[C@@H](CC(N)=O)C(=O)N[C@H]2C(=O)N[C@H]3C(=O)N[C@H](C(=O)N[C@H](C(=O)O)c4cc(O)cc(O)c4-c4cc3ccc4O)[C@H](O)c3ccc(c(Cl)c3)Oc3cc2cc(c3O[C@@H]2O[C@H](CO)[C@@H](O)[C@H](O)[C@H]2O[C@H]2C[C@](C)(N)[C@H](O)[C@H](C)O2)Oc2ccc(cc2Cl)[C@H]1O [VANCOMYCIN] ? Thanks!
Out: 0.2 to 0.39 µg/mL

In: Could you please provide reported MIC for CON=C(c1cc2c(cc1C(C)C)CC[C@H]1[C@](C)(C(=O)O)CCC[C@]21C)c1ccccc1C(F)(F)F ? Thanks!
Out: 1.56 to 3.13 µg/mL

In: Could you please provide reported MIC for CC(C)c1cc2c(cc1C(=NO)c1cccc(C(F)(F)F)c1)[C@@]1(C)CCC[C@@](C)(C(=O)O)[C@@H]1CC2 ? Thanks!
Out: 1.56 to 3.13 µg/mL

###

Readings of MIC for the listed molecules
system: Staphylococcus aureus; experiment: Antibacterial activity against Staphylococcus aureus Newman; format: functional

Use these answered entries as a reference point.
{"cpdSmiles": "C=CCON=C(c1cc2c(cc1C(C)C)CC[C@H]1[C@](C)(C(=O)O)CCC[C@]21C)C(C)C", "parameter": "MIC", "reportedMeasurement": "10 to 12.5 µg/mL"}
{"cpdSmiles": "C#CCON=C(c1cc2c(cc1C(C)C)CC[C@H]1[C@](C)(C(=O)O)CCC[C@]21C)C(C)C", "parameter": "MIC", "reportedMeasurement": "10 to 12.5 µg/mL"}
{"cpdSmiles": "CON=C(c1ccc(Cl)cc1Cl)c1cc2c(cc1C(C)C)CC[C@H]1[C@](C)(C(=O)O)CCC[C@]21C", "parameter": "MIC", "reportedMeasurement": "1.56 to 3.13 µg/mL"}

In: Could you please provide reported MIC for C=CCON=C(c1cccs1)c1cc2c(cc1C(C)C)CC[C@H]1[C@](C)(C(=O)O)CCC[C@]21C ? Thanks!
Out: 25 to 50 µg/mL

###

tested on: Staphylococcus aureus; assay: Antibacterial activity against Staphylococcus aureus Newman; format: functional
parameter: MIC

{"compound": "CC(C)C(=NO)c1cc2c(cc1C(C)C)CC[C@H]1[C@](C)(C(=O)O)CCC[C@]21C", "reportedMeasurement": "> 50 µg/mL"}
{"compound": "CC(C)c1cc2c(cc1C(=NO)c1ccccc1)[C@@]1(C)CCC[C@@](C)(C(=O)O)[C@@H]1CC2", "reportedMeasurement": "10 to 12.5 µg/mL"}
{"compound": "CON=C(c1cc2c(cc1C(C)C)CC[C@H]1[C@](C)(C(=O)O)CCC[C@]21C)c1ccccc1C(F)(F)F", "reportedMeasurement": "0.39 to 0.78 µg/mL"}
{"compound": "CCCC(=NOC)c1cc2c(cc1C(C)C)CC[C@H]1[C@](C)(C(=O)O)CCC[C@]21C", "reportedMeasurement": "40 to 50 µg/mL"}

In: Could you please provide reported MIC for CC(C)c1ccc2c(c1)CC[C@H]1[C@](C)(C(=O)O)CCC[C@]21C [DEHYDROABIETIC ACID] ? Thanks!
Out: 12.5 to 20 µg/mL

In: Could you please provide reported MIC for C=CCON=C(CC)c1cc2c(cc1C(C)C)CC[C@H]1[C@](C)(C(=O)O)CCC[C@]21C ? Thanks!
Out: > 50 µg/mL

In: Could you please provide reported MIC for CC(C)c1cc2c(cc1C(=NO)C1CCCCC1)[C@@]1(C)CCC[C@@](C)(C(=O)O)[C@@H]1CC2 ? Thanks!
Out: 12.5 to 25 µg/mL

In: Could you please provide reported MIC for C#CCON=C(c1cccc(C(F)(F)F)c1)c1cc2c(cc1C(C)C)CC[C@H]1[C@](C)(C(=O)O)CCC[C@]21C ? Thanks!
Out: 1.56 to 3.13 µg/mL

###

system: Staphylococcus aureus; assay: Antibacterial activity against gentamicin-resistant Staphylococcus aureus NRS-108; format: functional
Readings of MIC for the listed compounds

{"compound": "C=CCON=C(c1cc2c(cc1C(C)C)CC[C@H]1[C@](C)(C(=O)O)CCC[C@]21C)c1ccccc1C(F)(F)F", "parameter": "MIC", "reportedMeasurement": "6.25 to 12.5 µg/mL"}
{"compound": "CC(C)c1cc2c(cc1C(=NO)c1ccc(Cl)cc1Cl)[C@@]1(C)CCC[C@@](C)(C(=O)O)[C@@H]1CC2", "parameter": "MIC", "reportedMeasurement": "1.56 to 3.13 µg/mL"}
{"compound": "C=CCON=C(c1ccccc1)c1cc2c(cc1C(C)C)CC[C@H]1[C@](C)(C(=O)O)CCC[C@]21C", "parameter": "MIC", "reportedMeasurement": "1.56 to 2.5 µg/mL"}
{"compound": "CON=C(c1ccc(Cl)cc1Cl)c1cc2c(cc1C(C)C)CC[C@H]1[C@](C)(C(=O)O)CCC[C@]21C", "parameter": "MIC", "reportedMeasurement": "> 25 µg/mL"}

In: Could you please provide reported MIC for CON=C(c1cc2c(cc1C(C)C)CC[C@H]1[C@](C)(C(=O)O)CCC[C@]21C)c1ccccc1C(F)(F)F ? Thanks!
Out: 6.25 to 12.5 µg/mL

In: Could you please provide reported MIC for CON=C(c1cccc(C(F)(F)F)c1)c1cc2c(cc1C(C)C)CC[C@H]1[C@](C)(C(=O)O)CCC[C@]21C ? Thanks!
Out: > 25 µg/mL

In: Could you please provide reported MIC for C=CCON=C(c1ccc(Cl)cc1Cl)c1cc2c(cc1C(C)C)CC[C@H]1[C@](C)(C(=O)O)CCC[C@]21C ? Thanks!
Out: 12.5 µg/mL

In: Could you please provide reported MIC for CC(C)c1cc2c(cc1C(=NO)c1cccc(C(F)(F)F)c1)[C@@]1(C)CCC[C@@](C)(C(=O)O)[C@@H]1CC2 ? Thanks!
Out: 3.13 to 6.25 µg/mL

In: Could you please provide reported MIC for CC(C)c1ccc2c(c1)CC[C@H]1[C@](C)(C(=O)O)CCC[C@]21C [DEHYDROABIETIC ACID] ? Thanks!
Out: 12.5 to 25 µg/mL

In: Could you please provide reported MIC for C#CCON=C(c1ccc(Cl)cc1Cl)c1cc2c(cc1C(C)C)CC[C@H]1[C@](C)(C(=O)O)CCC[C@]21C ? Thanks!
Out: 12.5 µg/mL
